// values below are reported inhibition at 100 µg/mL
test system: Acanthamoeba castellanii; assay: Antiamoebic activity against Acanthamoeba castellanii T4 genotype ATCC 50492 trophozites assessed as reduction in viable cells at 100 ug/ml incubated for 24 hrs by trypan blue staining based hemocytometric method relative to control; type: functional; conditions: T4 genotype ATCC 50492, 24 h
Endpoint: inhibition at 100 µg/mL

structure=Cc1cccc2c(=O)n(-c3ccc(Br)cc3)cnc12 target_under_test="Acanthamoeba castellanii" value="> 50%"
structure=Cc1cccc2c(=O)n(-c3cccc(F)c3)cnc12 target_under_test="Acanthamoeba castellanii" value="> 80%"
structure=Cc1cccc2c(=O)n(-c3cccc(Br)c3)cnc12 target_under_test="Acanthamoeba castellanii" value="> 50%"
structure=Cc1cccc2c(=O)n(-c3ccccc3I)cnc12 target_under_test="Acanthamoeba castellanii" value="> 80%"
structure=COc1ccc(-n2cnc3c(C)cccc3c2=O)cc1 target_under_test="Acanthamoeba castellanii" value="> 50%"
structure=Cc1ccccc1-n1cnc2c(C)cccc2c1=O target_under_test="Acanthamoeba castellanii" value="> 50%"
structure=Cc1cccc2c(=O)n(-c3ccc(Cl)cc3)cnc12 target_under_test="Acanthamoeba castellanii" value="> 50%"
structure=COc1ccc(OC)c(-n2cnc3c(C)cccc3c2=O)c1 target_under_test="Acanthamoeba castellanii" value="> 50%"
structure=Cc1cccc2c(=O)n(-c3ccc(I)cc3)cnc12 target_under_test="Acanthamoeba castellanii" value="> 50%"
structure=Cc1ccc(-n2cnc3c(C)cccc3c2=O)cc1 target_under_test="Acanthamoeba castellanii" value="> 50%"
structure=CSc1cccc(-n2cnc3c(C)cccc3c2=O)c1 target_under_test="Acanthamoeba castellanii" value="> 50%"
structure=Cc1cccc2c(=O)n(-c3ccc(F)cc3)cnc12 target_under_test="Acanthamoeba castellanii" value="> 80%"
structure=Cc1cccc2c(=O)n(-c3cccc(Cl)c3)cnc12 target_under_test="Acanthamoeba castellanii" value="> 50%"
structure=Cc1cccc2c(=O)n(-c3ccc(F)cc3F)cnc12 target_under_test="Acanthamoeba castellanii" value="> 50%"

---

tested on: Acanthamoeba castellanii; assay: Antiamoebic activity against Acanthamoeba castellanii T4 genotype ATCC 50492 trophozites assessed as reduction in viable cells at 50 ug/ml incubated for 24 hrs by trypan blue staining based hemocytometric method relative to control; assay type: functional; settings: T4 genotype ATCC 50492, 24 h
// values below are reported inhibition at 50 µg/mL
Endpoint: inhibition at 50 µg/mL

structure=COc1ccc(OC)c(-n2cnc3c(C)cccc3c2=O)c1 target_under_test="Acanthamoeba castellanii" value="> 50%"
structure=Cc1ccc(-n2cnc3c(C)cccc3c2=O)cc1 target_under_test="Acanthamoeba castellanii" value="> 50%"
structure=Cc1cccc2c(=O)n(-c3ccc(Cl)cc3)cnc12 target_under_test="Acanthamoeba castellanii" value="> 50%"
structure=Cc1ccccc1-n1cnc2c(C)cccc2c1=O target_under_test="Acanthamoeba castellanii" value="> 50%"
structure=Cc1cccc2c(=O)n(-c3cccc(Br)c3)cnc12 target_under_test="Acanthamoeba castellanii" value="> 50%"
structure=Cc1cccc2c(=O)n(-c3ccc(F)cc3F)cnc12 target_under_test="Acanthamoeba castellanii" value="> 50%"
structure=COc1ccc(-n2cnc3c(C)cccc3c2=O)cc1 target_under_test="Acanthamoeba castellanii" value="> 50%"
structure=CSc1cccc(-n2cnc3c(C)cccc3c2=O)c1 target_under_test="Acanthamoeba castellanii" value="> 50%"
structure=Cc1cccc2c(=O)n(-c3cccc(F)c3)cnc12 target_under_test="Acanthamoeba castellanii" value="> 50%"
structure=Cc1cccc2c(=O)n(-c3ccc(F)cc3)cnc12 target_under_test="Acanthamoeba castellanii" value="> 60%"
structure=Cc1cccc2c(=O)n(-c3ccc(I)cc3)cnc12 target_under_test="Acanthamoeba castellanii" value="> 60%"
structure=Cc1cccc2c(=O)n(-c3cccc(Cl)c3)cnc12 target_under_test="Acanthamoeba castellanii" value="> 50%"
structure=Cc1cccc2c(=O)n(-c3ccc(Br)cc3)cnc12 target_under_test="Acanthamoeba castellanii" value="> 50%"
structure=Cc1cccc2c(=O)n(-c3ccccc3I)cnc12 target_under_test="Acanthamoeba castellanii" value="> 60%"

---

tested on: HaCaT; experiment: Cytotoxicity against human HaCaT cells at 100 ug/ml incubated for 24 hrs by LDH release assay; format: cell-based
Endpoint: Activity

structure=Cc1cccc2c(=O)n(-c3cccc(Cl)c3)cnc12 value=Non-Toxic
structure=Cc1cccc2c(=O)n(-c3ccc(Br)cc3)cnc12 value=Non-Toxic
structure=Cc1cc(C)cc(-n2cnc3c(C)cccc3c2=O)c1 value=Non-Toxic
structure=CSc1cccc(-n2cnc3c(C)cccc3c2=O)c1 value=Non-Toxic
structure=COc1ccc(-n2cnc3c(C)cccc3c2=O)cc1 value=Non-Toxic
structure=COc1ccc(OC)c(-n2cnc3c(C)cccc3c2=O)c1 value=Non-Toxic
structure=Cc1ccc(-n2cnc3c(C)cccc3c2=O)cc1 value=Non-Toxic
structure=Cc1cccc2c(=O)n(-c3ccc(F)cc3)cnc12 value=Non-Toxic
structure=Cc1ccccc1-n1cnc2c(C)cccc2c1=O value=Non-Toxic
structure=Cc1cccc2c(=O)n(-c3ccc(I)cc3)cnc12 value=Non-Toxic
structure=Cc1cccc2c(=O)n(-c3ccc(Cl)cc3)cnc12 value=Non-Toxic
structure=Cc1cccc2c(=O)n(-c3ccc(F)cc3F)cnc12 value=Non-Toxic
structure=Cc1cccc2c(=O)n(-c3cccc(F)c3)cnc12 value=Non-Toxic
